meta.source: patent US20240239875A1

A collection of binders and their measured pEC50
- assayed.system: SARS-CoV-2 S2 domain (UniProt P0DTC2 686-1213)
- test.description: ELISA
pEC50 here is simply -log10 of the concentration when that concentration is written in mol/L.

Q: Assign pEC50 to the following record: 6-C19-A (antibody, V domains shown) VH: EVQLQQSGPELVKPGASVKMSCKASGYTFTDYNIHWVKQSHGKSLEWIGYINPNNGGTDYNQKFQGKATLTVDKSSSTAYMELRSLTSEDSAVYYCARGGFYGNYGSYYGMDFWGQGTSVTVSS VL: DIQMTQSPASLSASVGETVTITCRTSENIYSHLAWYQQTQGKSPHLLVYNAKTLAEGVPSRFSGSGSGTQFSLKINSLQPEDFGSYFCQHHYGIPPEFGGGTKLEIK
A: 9.41

Q: Assign pEC50 to the following record: 8-N24-A (antibody, V domains shown) VH: QVQLQQPGAELVKPGASVKVSCKASGYTFTSYWMHWVKQRPGQGLEWIGRIHPSDSDTNYYQKFKGKATLSVDKSSSTAYMQLSSLTSEDSAVYYCAIPLYSYDNSGGYYPMDYWGQGTSVTVSS VL: DIVMTQSQKFMSTSVGDRVTITCKASQNVRTAVAWYQQKPGQSPKKLIYLASNRHTGVPDRFTGSGSGTDFTLAISNVQSEDLADYFCLQHWNYPFTFGSGTRLEIK
A: 8.35

Q: Assign pEC50 to the following record: 9-P9-A (antibody, V domains shown) VH: DVKLVESGEGLVKPGGSLKLSCAASGFSFSNFGMSWVRQTPEKRLEWVAYISSGGDYIYYADTVKGRFTISRDNARNTLYLQMSSLKSEDTAIYYCTRGYFDYWGQGTTLTVSS VL: DVLMTQTPLSLPVSLGDQASISCRSSQSIVHSNGNTYLEWYLQKPGQSPKLLIYTVSNRFSGVPDRFSGSGSGTDFTLKISRVEAEDLGVYYCFQGSHVPYTFGGGTKLEMR
A: 10.40
